# Assay System: T1, human G-protein-coupled receptor family C group 5 member D (GPRC5D) (human, UniProt Q9NZD1 1-345)
# T1 construct: whole, on cells; also called human GPRC5D protein
# T1 sequence (Q9NZD1 whole entry): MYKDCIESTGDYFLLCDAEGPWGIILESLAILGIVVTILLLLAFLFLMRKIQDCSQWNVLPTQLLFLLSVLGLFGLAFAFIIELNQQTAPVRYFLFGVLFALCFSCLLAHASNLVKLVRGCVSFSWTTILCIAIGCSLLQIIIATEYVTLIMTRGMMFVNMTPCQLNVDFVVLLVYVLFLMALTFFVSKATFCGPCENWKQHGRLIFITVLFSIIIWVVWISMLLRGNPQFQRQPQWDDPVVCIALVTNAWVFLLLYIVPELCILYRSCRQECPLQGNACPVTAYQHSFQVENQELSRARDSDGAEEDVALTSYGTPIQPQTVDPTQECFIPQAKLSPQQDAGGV
# Measurement Protocol: FACS, CHO-K1/GPRC5D
Reported Span values follow for various binders
Lab note: write the figure by itself, no unit.

Solved cases (4 shown):
>  <Binder>
58-H1L3 (antibody, V domains shown, humanized 58F9G10, VH v1 x VL v3) VH: QVQLVQSGAEVKKPGASVKVSCKASGYSFTGYYIHWVRQAPGQGLEWMGYISSYNAATSFNQKFKGRVTMTRDTSTSTVYMELSSLRSEDTAVYYCARTELRGPWFAYWGQGTLVTVSS VL: DTQLTQSPSSLSASVGDRVTMTCSASSSVSYMNWYQQKPGKAPKRLIYDTSKLASGVPSRFSGSGSGTDYTLTISSMQPEDFATYYCQQWSNNPLTFGQGTKLEIK

>  <Measurement>
101000

$$$$
>  <Binder>
58-H2L1 (antibody, V domains shown, humanized 58F9G10, VH v2 x VL v1) VH: QVQLVQSGAEVKKPGASVKVSCKASGYSFTGYYIHWVRQAPGQGLEWIGYISSYNAATSFNQKFKGRVTFTVDTSTSTVYMELSSLRSEDTAVYYCARTELRGPWFAYWGQGTLVTVSS VL: DIQMTQSPSSLSASVGDRVTITCSASSSVSYMNWYQQKPGKAPKLLIYDTSKLASGVPSRFSGSGSGTDFTLTISSLQPEDFATYYCQQWSNNPLTFGQGTKLEIK

>  <Measurement>
106000

$$$$
>  <Binder>
58-H2L3 (antibody, V domains shown, humanized 58F9G10, VH v2 x VL v3) VH: QVQLVQSGAEVKKPGASVKVSCKASGYSFTGYYIHWVRQAPGQGLEWIGYISSYNAATSFNQKFKGRVTFTVDTSTSTVYMELSSLRSEDTAVYYCARTELRGPWFAYWGQGTLVTVSS VL: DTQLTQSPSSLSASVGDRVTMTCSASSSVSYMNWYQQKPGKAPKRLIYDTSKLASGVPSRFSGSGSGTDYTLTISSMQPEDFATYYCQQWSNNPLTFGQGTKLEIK

>  <Measurement>
90500

$$$$
>  <Binder>
58-H1L2 (antibody, V domains shown, humanized 58F9G10, VH v1 x VL v2) VH: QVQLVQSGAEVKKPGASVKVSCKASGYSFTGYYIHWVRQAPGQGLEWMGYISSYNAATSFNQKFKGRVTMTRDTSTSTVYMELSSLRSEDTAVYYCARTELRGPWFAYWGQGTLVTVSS VL: DTQMTQSPSSLSASVGDRVTITCSASSSVSYMNWYQQKPGKAPKRLIYDTSKLASGVPSRFSGSGSGTDYTLTISSLQPEDFATYYCQQWSNNPLTFGQGTKLEIK

>  <Measurement>
109000

$$$$

[in] I would be grateful if you could share the reported Span for 58-H4L1 (antibody, V domains shown, humanized 58F9G10, VH v4 x VL v1) VH: QVQLVQSGAEVKKPGASVKISCKASGYSFTGYYIHWVKQAPGQGLEWIGYISSYNAATSFNQKFKGRATFTVDTSTSTAYMEFSSLRSEDSAVYYCARTELRGPWFAYWGQGTLVTVSS VL: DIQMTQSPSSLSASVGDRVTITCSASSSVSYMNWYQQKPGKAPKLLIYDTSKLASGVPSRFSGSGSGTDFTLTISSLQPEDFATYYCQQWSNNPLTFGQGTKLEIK .
[out] 99600

Data provenance is patent US12281162.
